test.method.notes: Approximate solubility of Compound I-1 (amorphous) in different solvents (manual dilution, visual observation)
Assay type: physicochemical
stated.conditions: N-methyl pyrrolidone, ambient laboratory temperature
Residues, ends and D or L forms follow the SMILES beside them. *: point of attachment. Palmitoyl = CCCCCCCCCCCCCCCC(=O)*
measure.name: solubility

# input May I ask what solubility has been recorded for CCCCCCCCCCCCCCCC(=O)N1CCC[C@H]1C(=O)N1CCC[C@H]1C(=O)NCC(=O)N[C@@H](Cc1ccc(O)cc1)C(=O)[O-].[Na+] [Compound I-1 (Amorphous)] (Palmitoyl-PPGY-OH) ?
# output 50 to 100 mg/mL

----------
test.method.notes: Aqueous solubility of Compound I-1 in the presence of excipients
Type: physicochemical
stated.conditions: water with Meglumine:Cremophor RH 40 (1:1, w/w) 10% (w/v); approximate solubility by visual observation
Residues, ends and D or L forms follow the SMILES beside them. *: point of attachment. Palmitoyl = CCCCCCCCCCCCCCCC(=O)*
measure.name: solubility

# input Look up solubility for this compound: CCCCCCCCCCCCCCCC(=O)N1CCC[C@H]1C(=O)N1CCC[C@H]1C(=O)NCC(=O)N[C@@H](Cc1ccc(O)cc1)C(=O)[O-].[Na+] [Compound I-1] (Palmitoyl-PPGY-OH)
# output > 250 mg/mL
